- subject of test: F508delCFTR (Homo sapiens, UniProt P13569, DEL508-508)
- Construct: expressed in transfected cells; host or cells: CFBE41o- human lung derived epithelial cells (CFBE41o-F508delCFTR-HRP), doxycycline-inducible
- Sequence (P13569 with tags, fused parts or gaps DEL508-508): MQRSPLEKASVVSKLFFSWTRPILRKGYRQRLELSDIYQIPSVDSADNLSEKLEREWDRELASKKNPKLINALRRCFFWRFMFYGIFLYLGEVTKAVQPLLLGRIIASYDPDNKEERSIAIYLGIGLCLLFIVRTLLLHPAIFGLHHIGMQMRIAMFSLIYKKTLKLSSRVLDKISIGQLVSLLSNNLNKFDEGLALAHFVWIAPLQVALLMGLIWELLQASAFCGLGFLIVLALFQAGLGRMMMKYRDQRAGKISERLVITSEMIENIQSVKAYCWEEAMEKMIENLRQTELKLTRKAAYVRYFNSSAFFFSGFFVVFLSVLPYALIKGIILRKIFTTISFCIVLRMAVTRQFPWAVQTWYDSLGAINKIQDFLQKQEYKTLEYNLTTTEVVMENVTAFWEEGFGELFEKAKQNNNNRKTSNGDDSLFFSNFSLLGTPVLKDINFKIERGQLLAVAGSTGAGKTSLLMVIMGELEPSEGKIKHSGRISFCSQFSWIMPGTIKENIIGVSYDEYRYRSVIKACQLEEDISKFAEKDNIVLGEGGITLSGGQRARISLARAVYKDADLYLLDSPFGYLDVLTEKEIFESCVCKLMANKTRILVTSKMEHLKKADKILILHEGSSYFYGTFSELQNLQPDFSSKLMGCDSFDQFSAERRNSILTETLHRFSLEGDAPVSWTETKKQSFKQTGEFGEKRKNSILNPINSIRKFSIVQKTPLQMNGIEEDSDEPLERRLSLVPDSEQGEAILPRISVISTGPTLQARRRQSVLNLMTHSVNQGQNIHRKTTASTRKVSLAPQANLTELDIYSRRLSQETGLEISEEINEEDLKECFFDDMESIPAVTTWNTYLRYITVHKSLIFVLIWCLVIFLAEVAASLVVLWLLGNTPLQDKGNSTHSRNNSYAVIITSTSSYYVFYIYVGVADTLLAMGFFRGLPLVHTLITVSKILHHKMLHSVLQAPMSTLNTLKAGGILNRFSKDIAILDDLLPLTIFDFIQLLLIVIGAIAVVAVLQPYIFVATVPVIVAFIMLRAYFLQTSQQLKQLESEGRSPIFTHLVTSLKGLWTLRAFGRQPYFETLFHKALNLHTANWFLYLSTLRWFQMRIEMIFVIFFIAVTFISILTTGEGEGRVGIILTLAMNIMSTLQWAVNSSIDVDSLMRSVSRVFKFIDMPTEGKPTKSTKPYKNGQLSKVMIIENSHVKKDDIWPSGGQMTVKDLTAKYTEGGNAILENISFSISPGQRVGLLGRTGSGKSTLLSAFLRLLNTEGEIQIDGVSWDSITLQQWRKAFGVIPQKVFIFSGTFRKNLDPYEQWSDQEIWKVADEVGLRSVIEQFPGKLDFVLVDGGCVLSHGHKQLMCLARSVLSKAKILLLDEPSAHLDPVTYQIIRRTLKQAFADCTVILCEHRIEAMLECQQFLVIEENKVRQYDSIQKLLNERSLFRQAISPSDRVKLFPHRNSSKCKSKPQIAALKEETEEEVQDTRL
- test method notes: Cell Surface Expression-Horse Radish Peroxidase (CSE-HRP) Assay
- Format: cell-based
- setup conditions: test compound alone, without co-corrector; read-out: EC50 (without co-corrector)
pEC50: −log10 of the molar value.
endpoint label: pEC50

Below, 5 molecules whose answers are already recorded.
COc1ccc(C2CCC2)cc1C1(C(=O)NS(=O)(=O)c2cccn3nccc23)CC1 [Example I-61] ... > 5.52
COc1cc(OC(C)C)c(C2(C(=O)NS(=O)(=O)c3cccc4nc(C)ccc34)CC2)cn1 [Example GI-18] ... 5.00 to 5.52
Cc1cnc(OC(C)C)c(C2(C(=O)NS(=O)(=O)c3cccc4nc(N)ccc34)CC2)c1 [Example I-97] ... > 5.52
COc1ccc(C2CCC2)cc1C1(C(=O)NS(=O)(=O)c2cccc3cnn(C)c23)CC1 [Example I-60] ... > 5.52
COc1ccc(C2CCC2)cc1C1(C(=O)NS(=O)(=O)c2cccc3c2CCN3C)CC1 [II-40] ... 5.00 to 5.52

# input What value of pEC50 has been reported for the following molecule? CCc1ccc(OC)c(C2(C(=O)NS(=O)(=O)c3cccc4nc(C)ccc34)CC2)c1 [Example I-84]
# output > 5.52

# input What value of pEC50 has been reported for the following molecule? CCc1cnc(OCC(C)C)c(C2(C(=O)NS(=O)(=O)c3cccc4[nH]ncc34)CC2)c1 [Example I-94]
# output > 5.52

# input What value of pEC50 has been reported for the following molecule? COc1ncc(C)cc1C1(C(=O)NS(=O)(=O)c2cccc3c2CCCN3)CC1 [II-10]
# output 5.00 to 5.52

====

- subject of test: F508delCFTR (Homo sapiens, UniProt P13569, DEL508-508)
- Construct: expressed in transfected cells; host or cells: CFBE41o- human lung derived epithelial cells (CFBE41o-F508delCFTR-HRP), doxycycline-inducible
- test method notes: Cell Surface Expression-Horse Radish Peroxidase (CSE-HRP) Assay
- Format: cell-based
- setup conditions: test compound with co-corrector; maximum at any tested concentration
endpoint label: Maximum % activity (with co-corrector)

Cc1cnc(N2CCN(C)CC2)c(C2(C(=O)NS(=O)(=O)c3cccc4ncccc34)CC2)c1 ... ++ (≥150 and <350)
CCc1ccc(OC(C)C)c(C2(C(=O)NS(=O)(=O)c3cccc4nc(C)ccc34)CC2)n1 ... +++ (≥350)
COCCOc1cnc(OC)cc1C1(C(=O)NS(=O)(=O)c2cccc3nc(C)ccc23)CC1 ... ++ (≥150 and <350)
CCc1ccc(OC(C)C)c(C2(C(=O)NS(=O)(=O)c3cccc4ncccc34)CC2)n1 ... +++ (≥350)
CC(C)Oc1cc(C2CCC2)cnc1C1(C(=O)NS(=O)(=O)c2cccc3ncccc23)CC1 ... ++ (≥150 and <350)
Cc1cnc(N(C)C)c(C2(C(=O)NS(=O)(=O)c3cccc4ncccc34)CC2)c1 ... +++ (≥350)
Cc1cnc(OCC2CC2)c(C2(C(=O)NS(=O)(=O)c3cccc4nc(C)ccc34)CC2)c1 ... +++ (≥350)

# input Form field: Maximum % activity (with co-corrector) recorded for `COc1cnc(OCC2CC2)c(C2(C(=O)NS(=O)(=O)c3cccc4ncccc34)CC2)c1` with F508delCFTR (Homo sapiens, UniProt P13569, DEL508-508) (enter value)
# output +++ (≥350)

====

- subject of test: F508delCFTR (Homo sapiens, UniProt P13569, DEL508-508)
- Construct: expressed in transfected cells; host or cells: CFBE41o- human lung derived epithelial cells (CFBE41o-F508delCFTR-HRP), doxycycline-inducible
- test method notes: Cell Surface Expression-Horse Radish Peroxidase (CSE-HRP) Assay;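 as to Maximum % activity (without co-corrector): % of on-plate positive control chromenyl benzoic acid corrector at 2 or 3 µM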
- Assay type: cell-based
- setup conditions: without co-corrector; maximum at any tested concentration; read-out: Maximum % activity (without co-corrector)
Emax overview

O=C(CCc1ccccc1)N1CCC(S(=O)(=O)NC(=O)C2(c3ccc(Cl)cc3Cl)CC2)CC1 ... < 50%

# input What value of Emax has been reported for the following compound? `O=C(NS(=O)(=O)c1cccc2c1CCCN2)C1(c2cc(OC(F)(F)F)ccc2Cl)CC1`
# output > 150%

# input What value of Emax has been reported for the following compound? `COc1ncc(C2CCC2)cc1C1(C(=O)NS(=O)(=O)c2cccc3ccccc23)CC1`
# output > 150%

# input What value of Emax has been reported for the following compound? `CCc1ccc(O[C@H]2CCOC2)c(C2(C(=O)NS(=O)(=O)c3cccc4ncccc34)CC2)c1`
# output > 150%

# input What value of Emax has been reported for the following compound? `COCC(C)(C)c1ccc(OC)c(C2(C(=O)NS(=O)(=O)c3cccc4ncccc34)CC2)c1`
# output > 150%

====

EC50 overview
- subject of test: F508delCFTR (Homo sapiens, UniProt P13569, DEL508-508)
- Construct: expressed in transfected cells; host or cells: CFBE41o- human lung derived epithelial cells (CFBE41o-F508delCFTR-HRP), doxycycline-inducible
- test method notes: Cell Surface Expression-Horse Radish Peroxidase (CSE-HRP) Assay;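 as to EC50 (with co-corrector): co-corrector chromenyl benzoic acid corrector at 2 or 3 µM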
- Format: cell-based
- setup conditions: with co-corrector; read-out: EC50 (with co-corrector)

Below, 5 compounds whose answers are already recorded.
Cc1ccc(C)c(C2(C(=O)NS(=O)(=O)c3cccc4[nH]ncc34)CC2)c1 [Example III-127] ... < 3 µM
COc1ncc(C2CCC2)cc1C1(C(=O)NS(=O)(=O)c2cccn3nccc23)CC1 [Example I-19] ... < 3 µM
O=C(NS(=O)(=O)c1ccccc1)C1(c2cccc(Br)c2)CC1 [Example III-71] ... 3 to 10 µM
O=C(NS(=O)(=O)c1ccc2ccccc2c1)C1(c2ccc(Cl)cc2Cl)CC1 [Example III-27] ... > 10 µM
COc1ccc(C2CCC2)cc1C1(C(=O)NS(=O)(=O)c2cccc3cnn(C)c23)CCC1 [Example I-25] ... < 3 µM

# input What value of EC50 has been reported for the following compound? COc1cccc(C2(C(=O)NS(=O)(=O)c3ccccc3C)CCOCC2)c1 [Example III-81]
# output > 10 µM

# input What value of EC50 has been reported for the following compound? COc1cc(C2(C(=O)NS(=O)(=O)c3cccc4ncccc34)CC2)c(OC(C)C)cn1 [Example GI-16]
# output < 3 µM

# input What value of EC50 has been reported for the following compound? CCc1cccc(OC)c1C1(C(=O)NS(=O)(=O)c2cccc3nc(C)ccc23)CC1 [Example III-133]
# output < 3 µM

====

- subject of test: F508delCFTR (Homo sapiens, UniProt P13569, DEL508-508)
- Construct: expressed in transfected cells; host or cells: CFBE41o- human lung derived epithelial cells (CFBE41o-F508delCFTR-HRP), doxycycline-inducible
- test method notes: Cell Surface Expression-Horse Radish Peroxidase (CSE-HRP) Assay
- Assay type: cell-based
- setup conditions: test compound with co-corrector; maximum at any tested concentration
endpoint label: Maximum % activity (with co-corrector)

Below, 6 molecules whose answers are already recorded.
Cc1cnc(N(C)C)cc1C1(C(=O)NS(=O)(=O)c2cccc3ncccc23)CC1 ... +++ (≥350)
CCc1cnc(OCCOC)c(C2(C(=O)NS(=O)(=O)c3cccc4ncccc34)CC2)c1 ... +++ (≥350)
O=C(NS(=O)(=O)c1cccc2ccccc12)C1(c2ccc(C(F)(F)F)nc2Cl)CC1 ... ++ (≥150 and <350)
CN1CCN(c2ncc(C3CC3)cc2C2(C(=O)NS(=O)(=O)c3cccc4[nH]ccc34)CC2)CC1 ... + (<150)
CCc1cnc(N2CCN(C)CC2)c(C2(C(=O)NS(=O)(=O)c3cccc4ncccc34)CC2)c1 ... + (<150)
Cc1ccc2c(S(=O)(=O)NC(=O)C3(c4cc(C5CCC5)cnc4N4CCCC4)CC3)cccc2n1 ... +++ (≥350)

Alright, here's another molecule for you.
# input Form field: Maximum % activity (with co-corrector) recorded for `COc1cc(C2(C(=O)NS(=O)(=O)c3cccc4nc(C)ccc34)CC2)c(OC(F)F)cn1` with F508delCFTR (Homo sapiens, UniProt P13569, DEL508-508) (enter value)
# output ++ (≥150 and <350)

====

Emax overview
- subject of test: F508delCFTR (Homo sapiens, UniProt P13569, DEL508-508)
- Construct: expressed in transfected cells; host or cells: CFBE41o- human lung derived epithelial cells (CFBE41o-F508delCFTR-HRP), doxycycline-inducible
- test method notes: Cell Surface Expression-Horse Radish Peroxidase (CSE-HRP) Assay;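 as to Maximum % activity (without co-corrector): % of on-plate positive control chromenyl benzoic acid corrector at 2 or 3 µM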
- Format: cell-based
- setup conditions: test compound without co-corrector; maximum at any tested concentration; read-out: Maximum % activity (without co-corrector)

Below, 3 compounds whose answers are already recorded.
Cc1ccc(C2(C(=O)NS(=O)(=O)c3cccc4nc(C)ccc34)CC2)c(OC(C)C)n1 [Example GI-81] ... > 150%
O=C(NS(=O)(=O)c1cccc2ncccc12)C1(c2ncc(C(F)(F)F)cc2Cl)CC1 [GIII-1] ... < 50%
O=C(NS(=O)(=O)c1cccc2ncccc12)C1(c2ccc(C(F)(F)F)nc2Cl)CC1 [GIII-29] ... < 50%

# input What value of Emax has been reported for the following compound? CN1CCN(c2ncc(C3CC3)cc2C2(C(=O)NS(=O)(=O)c3cccc4[nH]ccc34)CC2)CC1 [GIII-36]
# output < 50%
